meta.source: patent US8901118B2

- study.target: Flt-3 kinase (Homo sapiens, UniProt P36888)
- Sequence (P36888 27-993): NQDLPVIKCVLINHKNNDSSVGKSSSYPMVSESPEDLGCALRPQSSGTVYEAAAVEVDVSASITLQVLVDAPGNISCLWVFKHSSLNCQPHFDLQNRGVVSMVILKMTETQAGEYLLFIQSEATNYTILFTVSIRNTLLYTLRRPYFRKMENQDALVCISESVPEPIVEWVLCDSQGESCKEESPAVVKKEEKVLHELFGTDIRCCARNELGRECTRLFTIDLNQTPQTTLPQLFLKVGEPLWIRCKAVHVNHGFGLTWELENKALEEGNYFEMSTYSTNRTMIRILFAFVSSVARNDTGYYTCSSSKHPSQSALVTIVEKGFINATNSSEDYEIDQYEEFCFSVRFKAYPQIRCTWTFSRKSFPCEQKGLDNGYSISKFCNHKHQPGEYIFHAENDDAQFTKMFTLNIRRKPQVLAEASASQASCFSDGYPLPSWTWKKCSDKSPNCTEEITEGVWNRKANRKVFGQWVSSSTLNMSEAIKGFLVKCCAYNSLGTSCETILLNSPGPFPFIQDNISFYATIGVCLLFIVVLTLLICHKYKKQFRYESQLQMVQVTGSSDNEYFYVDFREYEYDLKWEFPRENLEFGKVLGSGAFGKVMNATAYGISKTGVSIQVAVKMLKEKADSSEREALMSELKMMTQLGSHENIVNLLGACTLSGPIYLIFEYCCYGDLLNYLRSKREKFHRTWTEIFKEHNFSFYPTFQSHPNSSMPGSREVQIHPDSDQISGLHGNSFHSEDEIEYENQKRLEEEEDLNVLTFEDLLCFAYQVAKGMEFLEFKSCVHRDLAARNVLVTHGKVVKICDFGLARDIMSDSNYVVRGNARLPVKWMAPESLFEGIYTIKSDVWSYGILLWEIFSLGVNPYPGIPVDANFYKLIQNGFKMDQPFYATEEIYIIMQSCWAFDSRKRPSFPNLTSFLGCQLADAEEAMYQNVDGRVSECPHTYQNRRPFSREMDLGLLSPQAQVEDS
metric: IC50

> print(dat)
                           structure.smiles    result
1  Clc1cnc2[nH]cc(Cc3cnc(Nc4ccccc4Cl)nc3)c2c1  < 100 nM
2  CCOc1ncnc2[nH]cc(Cc3ccc(Nc4ccc(OC)nc4)nc3F)c12  < 100 nM

Next, consider the following molecule.
Which measured IC50 belongs to Fc1nc(NC2CCC(F)(F)CC2)ccc1Cc1c[nH]c2ncc(Cl)cc12 , tested on Flt-3 kinase (Homo sapiens, UniProt P36888)? > 1000 nM

* * *

- study.target: BCR-NTRK1 BaF3 cells (Homo sapiens, UniProt P04629)
- Construct: fused on or other part: P11274 (Breakpoint cluster region protein)
- Sequence (P04629 510-781): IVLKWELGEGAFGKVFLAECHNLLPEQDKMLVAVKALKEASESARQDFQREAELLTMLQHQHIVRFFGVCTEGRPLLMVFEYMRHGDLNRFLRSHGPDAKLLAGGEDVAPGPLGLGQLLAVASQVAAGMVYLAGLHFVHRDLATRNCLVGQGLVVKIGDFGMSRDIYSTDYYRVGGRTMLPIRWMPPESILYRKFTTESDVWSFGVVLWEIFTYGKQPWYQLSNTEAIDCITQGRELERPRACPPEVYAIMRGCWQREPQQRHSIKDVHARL
- experiment.description: BaF3 BCR-NTRK1 cell proliferation assay (ATPlite)
- condition.details: read-out: Inhibition of Cell Proliferation IC50, BCR/BaF3 TrkA
pIC50: −log10 of the molar value.
metric: pIC50

// worked examples, pIC50 included
> print(dat)
                           structure.smiles                              study.target  result
1  Nc1ncnc2[nH]cc(C(=O)c3ccc(Nc4ccc(C5CC5)nc4)nc3F)c12  BCR-NTRK1 BaF3 cells (Homo sapiens, UniProt P04629)  > 6.00
2  CCNc1ncnc2[nH]cc(C(=O)c3ccc(Nc4ccc(OC)nc4)nc3F)c12  BCR-NTRK1 BaF3 cells (Homo sapiens, UniProt P04629)  > 8.00

Any idea what pIC50 was measured for CCOc1ccc(Nc2ccc(C(=O)c3c[nH]c4ncnc(C)c34)c(F)n2)cn1 ? > 7.00

Quick one: CCc1ccc(Nc2ccc(C(=O)c3c[nH]c4ncnc(NC)c34)c(F)n2)cn1 > 8.00

* * *

Quick list: pIC50 per entry.
- study.target: BCR-NTRK2 BaF3 cells (Homo sapiens, UniProt Q16620)
- Construct: fused on or other part: P11274 (Breakpoint cluster region protein)
- Sequence (Q16620 538-807): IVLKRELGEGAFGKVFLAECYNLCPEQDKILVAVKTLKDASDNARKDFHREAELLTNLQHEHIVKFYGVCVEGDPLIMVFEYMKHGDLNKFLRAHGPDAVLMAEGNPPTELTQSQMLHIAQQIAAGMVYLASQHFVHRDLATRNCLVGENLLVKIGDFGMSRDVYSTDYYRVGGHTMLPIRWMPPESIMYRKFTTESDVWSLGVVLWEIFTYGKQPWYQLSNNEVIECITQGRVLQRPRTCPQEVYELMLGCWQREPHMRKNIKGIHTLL
- experiment.description: BaF3 BCR-NTRK2 cell proliferation assay (ATPlite)
- condition.details: read-out: Inhibition of Cell Proliferation IC50, BCR/BaF3 TrkB
pIC50: −log10 of the molar value.

> print(dat)
                            structure.smiles                              study.target  metric  result
 1  CCOc1ncnc2[nH]cc(Cc3ccc(Nc4cnn(CC)c4)nc3F)c12  BCR-NTRK2 BaF3 cells (Homo sapiens, UniProt Q16620)   pIC50  > 7.00
 2  CCNc1ncnc2[nH]cc(C(=O)c3ccc(Nc4ccc(OC)nc4)nc3F)c12  BCR-NTRK2 BaF3 cells (Homo sapiens, UniProt Q16620)   pIC50  > 8.00
 3  CNc1ncnc2[nH]cc(C(=O)c3ccc(NC4CCC(F)(F)CC4)nc3F)c12  BCR-NTRK2 BaF3 cells (Homo sapiens, UniProt Q16620)   pIC50  > 7.00
 4  COc1ccc(Nc2ncc(Cc3c[nH]c4ncc(C)cc34)cn2)cc1  BCR-NTRK2 BaF3 cells (Homo sapiens, UniProt Q16620)   pIC50  > 7.00
 5     Clc1cnc2[nH]cc(Cc3cnc(NC4CC4)nc3)c2c1  BCR-NTRK2 BaF3 cells (Homo sapiens, UniProt Q16620)   pIC50  < 5.00
 6  CCc1ccc(Nc2ccc(Cc3c[nH]c4ncnc(OC)c34)c(F)n2)cn1  BCR-NTRK2 BaF3 cells (Homo sapiens, UniProt Q16620)   pIC50  > 7.00
 7  CCn1cc(Nc2ccc(Cc3c[nH]c4ncnc(OCCOC)c34)c(F)n2)cn1  BCR-NTRK2 BaF3 cells (Homo sapiens, UniProt Q16620)   pIC50  > 6.00
 8  Cc1cnc2[nH]cc(Cc3cnc(Nc4ccc(F)cc4)nc3)c2c1  BCR-NTRK2 BaF3 cells (Homo sapiens, UniProt Q16620)   pIC50  < 5.00
 9  CNc1ncnc2[nH]cc(C(=O)c3ccc(NC4CCCCC4)nc3F)c12  BCR-NTRK2 BaF3 cells (Homo sapiens, UniProt Q16620)   pIC50  > 7.00
10  Cc1cnc2[nH]cc(Cc3cnc(Nc4ccc(C(F)(F)F)nc4)nc3)c2c1  BCR-NTRK2 BaF3 cells (Homo sapiens, UniProt Q16620)   pIC50  > 7.00

Any idea what pIC50 was measured for CCOc1ncnc2[nH]cc(Cc3ccc(Nc4ccc(C)nc4)nc3F)c12 ? > 6.00

Quick one: O=C(c1cnc(NC2CCC(F)(F)CC2)c(F)c1)c1c[nH]c2ncnc(NC3CC3)c12 > 8.00

Quick one: CCOc1ncnc2[nH]cc(C(=O)c3ccc(Nc4ccc(OC)nc4)nc3F)c12 > 7.00

Quick one: Cc1cnc2[nH]cc(Cc3ccc(Nc4ccc(C)nc4)nc3F)c2c1 > 6.00

Quick one: CCOc1ccc(Nc2ncc(Cc3c[nH]c4ncc(C)cc34)cn2)cn1 > 6.00

Quick one: COc1cncc(Nc2ccc(C(=O)c3c[nH]c4ncnc(NC5CC5)c34)c(F)n2)c1 > 7.00

Quick one: Clc1cnc2[nH]cc(Cc3cnc(NC4CCCCCC4)nc3)c2c1 < 5.00

* * *

pIC50: −log10 of the molar value.
Parameter pIC50, tested on Fms kinase (Homo sapiens), listed per item.
Sequence (P07333 20-972): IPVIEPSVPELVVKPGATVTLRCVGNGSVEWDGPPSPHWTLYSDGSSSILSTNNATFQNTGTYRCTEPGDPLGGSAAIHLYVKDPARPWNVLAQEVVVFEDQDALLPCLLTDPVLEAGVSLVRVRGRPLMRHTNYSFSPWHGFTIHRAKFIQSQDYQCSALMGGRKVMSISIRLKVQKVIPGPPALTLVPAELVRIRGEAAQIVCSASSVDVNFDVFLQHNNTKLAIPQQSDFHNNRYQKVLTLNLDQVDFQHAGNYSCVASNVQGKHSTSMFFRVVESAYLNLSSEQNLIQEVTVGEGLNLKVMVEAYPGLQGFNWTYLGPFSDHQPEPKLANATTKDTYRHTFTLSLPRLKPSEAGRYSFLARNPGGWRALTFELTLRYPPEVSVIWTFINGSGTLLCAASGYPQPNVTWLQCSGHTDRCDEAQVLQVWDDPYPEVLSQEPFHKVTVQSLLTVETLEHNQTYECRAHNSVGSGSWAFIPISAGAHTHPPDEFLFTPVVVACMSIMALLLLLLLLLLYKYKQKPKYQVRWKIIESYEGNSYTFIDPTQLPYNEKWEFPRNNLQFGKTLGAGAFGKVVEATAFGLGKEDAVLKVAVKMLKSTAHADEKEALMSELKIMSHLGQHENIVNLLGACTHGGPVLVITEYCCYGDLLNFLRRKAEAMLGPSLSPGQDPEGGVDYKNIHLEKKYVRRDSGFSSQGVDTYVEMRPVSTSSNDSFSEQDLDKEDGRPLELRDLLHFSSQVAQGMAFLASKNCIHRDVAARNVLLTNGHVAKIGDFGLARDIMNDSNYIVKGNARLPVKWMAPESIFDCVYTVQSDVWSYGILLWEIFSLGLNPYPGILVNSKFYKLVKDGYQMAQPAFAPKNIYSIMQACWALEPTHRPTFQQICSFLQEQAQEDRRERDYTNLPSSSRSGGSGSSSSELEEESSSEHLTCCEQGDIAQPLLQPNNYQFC

// worked examples, pIC50 included
> print(dat)
                           structure.smiles  result
1  CNc1ncnc2[nH]cc(C(=O)c3ccc(NC4CCC(F)(F)CC4)nc3F)c12  > 8.00
2  O=C(c1ccc(Nc2ccc(C3CC3)nc2)nc1F)c1c[nH]c2ncnc(C3CC3)c12  > 7.00
3  CCc1ccc(Nc2ccc(C(=O)c3c[nH]c4ncnc(NC5CCC5)c34)c(F)n2)cn1  > 8.00

Any idea what pIC50 was measured for COCCOc1ncnc2[nH]cc(Cc3ccc(Nc4ccc(OC)nc4)nc3F)c12 ? > 8.00

* * *

- study.target: BCR-NTRK3 BaF3 cells (Homo sapiens)
- Construct: fused on or other part: P11274 (Breakpoint cluster region protein)
- Sequence (Q16288 whole entry, the tested form may be a part): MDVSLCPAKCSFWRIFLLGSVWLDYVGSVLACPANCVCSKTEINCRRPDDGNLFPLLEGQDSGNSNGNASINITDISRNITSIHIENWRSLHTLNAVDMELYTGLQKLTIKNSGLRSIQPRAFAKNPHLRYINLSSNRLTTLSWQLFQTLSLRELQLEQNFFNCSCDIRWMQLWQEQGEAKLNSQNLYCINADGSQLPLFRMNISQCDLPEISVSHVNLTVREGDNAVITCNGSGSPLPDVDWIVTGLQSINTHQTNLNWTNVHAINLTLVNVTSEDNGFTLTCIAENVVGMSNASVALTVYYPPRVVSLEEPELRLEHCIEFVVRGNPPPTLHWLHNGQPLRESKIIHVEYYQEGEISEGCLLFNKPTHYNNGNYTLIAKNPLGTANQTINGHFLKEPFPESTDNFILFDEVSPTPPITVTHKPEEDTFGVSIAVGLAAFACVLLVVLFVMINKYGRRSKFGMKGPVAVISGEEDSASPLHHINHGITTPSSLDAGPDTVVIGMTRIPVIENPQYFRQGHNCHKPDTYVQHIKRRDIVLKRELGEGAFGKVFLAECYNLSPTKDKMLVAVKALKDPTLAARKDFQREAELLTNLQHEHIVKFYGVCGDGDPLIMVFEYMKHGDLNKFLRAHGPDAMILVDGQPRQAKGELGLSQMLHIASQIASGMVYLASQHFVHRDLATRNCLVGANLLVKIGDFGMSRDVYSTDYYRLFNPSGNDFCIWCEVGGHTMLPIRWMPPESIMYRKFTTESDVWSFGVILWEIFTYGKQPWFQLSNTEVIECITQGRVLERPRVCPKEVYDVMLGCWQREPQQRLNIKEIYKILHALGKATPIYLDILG
- experiment.description: BaF3 BCR-NTRK3 cell proliferation assay (ATPlite)
- condition.details: read-out: Inhibition of Cell Proliferation IC50, BCR/BaF3 TrkC
pIC50: −log10 of the molar value.
Quick list: pIC50 per entry.

// worked examples, pIC50 included
> print(dat)
                           structure.smiles  metric  result
1  COc1ccc(Nc2ccc(C(=O)c3c[nH]c4ncnc(NCC(F)(F)F)c34)c(F)n2)cn1   pIC50  > 8.00
2  CCOc1ccc(Nc2ccc(Cc3c[nH]c4ncc(C)cc34)c(F)n2)cn1   pIC50  > 7.00
3  COc1ncnc2[nH]cc(Cc3ccc(Nc4ccc(C5CC5)nc4)nc3F)c12   pIC50  > 8.00

Any idea what pIC50 was measured for COCCOc1ncnc2[nH]cc(Cc3ccc(Nc4ccc(C)nc4)nc3F)c12 ? > 7.00

Quick one: CCn1cc(Nc2ccc(Cc3c[nH]c4ncnc(OC)c34)c(F)n2)cn1 > 6.00

Quick one: CCOc1ccc(Nc2ccc(C(=O)c3c[nH]c4ncnc(C5CC5)c34)c(F)n2)cn1 > 8.00
